- experimental_target: Lβ26F
- test: flow
- study_conditions: chains peptide; modification not given
outcome_measure: Kd (µM)
// note: answer is a bare numeric in µM

Query string: Returns the measured Kd for the input binder. Input: PKYVKQNTLKLAT [bio-HA308-316]
Result string: 3.72
